System: IL-1β
Test: LPS-stimulated IL-1β release in hPBMCs (ELISA)
Type: cell-based
Details: Homo sapiens; LPS-stimulated hPBMC
Observed property: IC50

[[record]]
molecule = "C=C1C(=O)OC2C3=C(C)CCCC3(C)CCC12O (stereo not shown)"
observed_property = "IC50"
measured_result = "400 nM"

